assay-target: T1, AAV9
T1 construct: also called adeno-associated virus serotype 9
protocol-description: SPR, AAV on CM5 chip;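 further: surface plasmon resonance with AAV amine-coupled to the chip as ligand, nanobodies injected as analyte over a concentration series, rate constants and affinity fitted from binding curves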
Entries annotated with measured kon
Write the number in M⁻¹ s⁻¹ without appending the unit.

Below, 3 binders whose answers are already recorded.
# binder, endpoint-unit, kon
records = [
    ("A4-018 (VHH) VHH: VQLQESGGGLVQAGGSLRLSCAASGSRFSINTMGWYRQAPGKQREFVATVTRGGNTNYAESVKGRFTISRDNAKNTVYLQMNSLRPEDTAVYYCHVDEVRDSSWTTSNIWGQGTQVTVSS", "M⁻¹ s⁻¹", 120000),
    ("A4-025 (VHH) VHH: VQLQESGGGLVQPGGSLRLSCAASGSNFRINTMGWYRQAPGKQRELVATVTRGGSTNYADSVKGRFTISRDNPKDTVYLQMNSLRPEDTAVYYCHVDEVRESSWTTSNLWGQGTQVTVSS", "M⁻¹ s⁻¹", 163000),
    ("A4-011 (VHH) VHH: VQLQESGGGLVQAGGSLRLSCAASGSIFSINSMGWYRQAPGKQRELVATVTRGGNTNYAGSVKGRFTISRDNAKNTVYLQMNSLRPEDTAVYYCHVDEVRESSWTTSNLWGQGTQVTVSS", "M⁻¹ s⁻¹", 439000),
]

Exercise: Give the measured kon of A4-039 (VHH) VHH: VQLQESGGGLVQPGGSLRLSCAASGSGFSINTMGWYRQAPGKWRELVATVTRGGSTNYAGSVKGRFTISRDNAKNTVYLQMNSLRPEDTAVYYCHIDEVRQSSWTTSNLWGQGTQVTVSS .
Key: 2780

Exercise: Field entry: A4-009 (VHH) VHH: VQLQESGGGLAQPGGSLRLSCAASGSRFSINTMGWYRQAPGKQREFVAAVTRGGSTNYAGSVKGRFTISRDNAKNTVYLQMNTLRPEDTAVYYCHVDEVRQSSWTTSNIWGQGTQVTVSS
Key: 139000

Exercise: Can you handle A4-023 (VHH) VHH: VQLQESGGGLVQPGGSLRLSCAASGSAFSINTMGWYRQAPGKQRELVASVTPGGSTNYADSVKGRFTISRDNAKNTIYLQMNSLRPEDTAVYYCHLDEVRESSWTTSNLWGQGTQVTVSS next?
Key: 195000

Exercise: Also need A4-024 (VHH) VHH: VQLQESGGGLVQPGGSLRLSCAASGSNFRINTMGWYRQAPGKQRELVATVTRGGSTNYADSVKGRFTISRDNPKNTVYLQMNSLRPEDTAVYYCHVDEVRESSWTTSNLWGQGTQVTVSS , thanks.
Key: 6900

Exercise: Likewise for A4-048 (VHH) VHH: VQLQESGGGLVQPGGSLRLSCAASGSMFSINTMGWYRQAPGKQRELVATVTRGGNTNYAGSVKGRFTISRDNAKNTVYLQMNSLRPEDTAVYYCHVDEVRQSSWTTSNLWGQGTQVTVSS ?
Key: 3260
